assay-procedure: Rat pharmacokinetic study
run-conditions: male, Sprague-Dawley, plasma, po, 2 mg/kg
quantity: Cmax
Answer by giving the amount and then stating its unit.

# query: Cmax of entry C[C@]12CC[C@H](O)C[C@@]1(O)CC[C@@H]1[C@@H]2CC[C@]2(C)[C@@H](c3ccc(=O)oc3)CC[C@]12O 537 ng/mL

----------
Test system: MERS-CoV
assay-procedure: microbe, parasite or virus in culture
Assay type: cell-based
run-conditions: read-out: IC50, inhibition of MERS-CoV infection
quantity: pIC50
Please report pIC50 as the negative decimal logarithm of the molar concentration, giving only the number.

# query: pIC50 of entry CC(=O)O[C@H]1[C@H]2O[C@]23[C@@H]2CC[C@]4(O)C[C@@H](O)CC[C@]4(C)[C@H]2CC[C@]3(C)[C@H]1c1ccc(=O)oc1 [cinobufotalin] 6.64

----------
assay-procedure: in vitro
run-conditions: human
Consider the following compounds; for each one, report its CC50.

# query: CC50 of entry C[C@]12CC[C@H](O)C[C@@]1(O)CC[C@@H]1[C@@H]2CC[C@]2(C)[C@@H](c3ccc(=O)oc3)CC[C@]12O > 50 µM

# query: CC50 of entry C[C@]12CC[C@H](O)C[C@H]1CC[C@@H]1[C@@H]2CC[C@]2(C)[C@@H](c3ccc(=O)oc3)CC[C@]12O > 50 µM

# query: CC50 of entry CC(=O)O[C@H]1C[C@]2(O)[C@@H]3CC[C@@H]4C[C@@H](O)CC[C@]4(C)[C@H]3CC[C@]2(C)[C@H]1c1ccc(=O)oc1 > 50 µM

----------
assay-procedure: Rat pharmacokinetic study
run-conditions: male, Sprague-Dawley, plasma, iv, 1 mg/kg
quantity: AUC (ng·h/mL)
Quick note: give the figure in ng·h/mL, leave out the unit.

# query: AUC of entry C[C@]12CC[C@H](O)C[C@@]1(O)CC[C@@H]1[C@@H]2CC[C@]2(C)[C@@H](c3ccc(=O)oc3)CC[C@]12O 604

----------
System: MERS-CoV, SARS-CoV, and SARS-CoV-2
assay-procedure: organism not typed
Type: cell-based
run-conditions: read-out: IC50, anti-coronavirus activity (range over both compounds and the viruses)
Consider the following molecules; for each one, report its IC50.

# query: IC50 of entry C[C@]12CC[C@H](O)C[C@H]1CC[C@@H]1[C@@H]2CC[C@]2(C)[C@@H](c3ccc(=O)oc3)C[C@H]3O[C@]132 [resibufogenin] 231 to 1610 nM

# query: IC50 of entry CC(=O)O[C@H]1[C@H]2O[C@]23[C@@H]2CC[C@]4(O)C[C@@H](O)CC[C@]4(C)[C@H]2CC[C@]3(C)[C@H]1c1ccc(=O)oc1 [cinobufotalin] 231 to 1610 nM

----------
assay-procedure: Rat pharmacokinetic study
run-conditions: male, Sprague-Dawley, plasma, iv, 1 mg/kg
quantity: half-life (min)
Quick note: give the figure in min, leave out the unit.

# query: half-life of entry C[C@]12CC[C@H](O)C[C@@]1(O)CC[C@@H]1[C@@H]2CC[C@]2(C)[C@@H](c3ccc(=O)oc3)CC[C@]12O [telocinobufagin] 13.5

----------
Consider the following compounds; for each one, report its fraction unbound at 4 h, 5 μM.
assay-procedure: Plasma protein binding, rat (rapid equilibrium dialysis)
Kindly provide the number alone.

# query: fraction unbound at 4 h, 5 μM of entry CC(=O)O[C@H]1[C@H]2O[C@]23[C@@H]2CC[C@@H]4C[C@@H](O)CC[C@]4(C)[C@H]2CC[C@]3(C)[C@H]1c1ccc(=O)oc1 0.218

# query: fraction unbound at 4 h, 5 μM of entry C[C@]12CC[C@H](O)C[C@@]1(O)CC[C@@H]1[C@@H]2CC[C@]2(C)[C@@H](c3ccc(=O)oc3)CC[C@]12O 0.032

----------
Tested on: CYP450 isozymes
assay-procedure: CYP450 inhibition, text summary over isozymes
quantity: inhibition at 10 µM

# query: inhibition at 10 µM of entry C[C@]12CC[C@H](O)C[C@@]1(O)CC[C@@H]1[C@@H]2CC[C@]2(C)[C@@H](c3ccc(=O)oc3)CC[C@]12O 1.4 to 21%

# query: inhibition at 10 µM of entry CC(=O)O[C@H]1[C@H]2O[C@]23[C@@H]2CC[C@@H]4C[C@@H](O)CC[C@]4(C)[C@H]2CC[C@]3(C)[C@H]1c1ccc(=O)oc1 4 to 46%

----------
assay-procedure: Rat pharmacokinetic study
run-conditions: male, Sprague-Dawley, plasma, iv, 1 mg/kg
quantity: Vd (L/kg)
Quick note: give the figure in L/kg, leave out the unit.

# query: Vd of entry C[C@]12CC[C@H](O)C[C@@]1(O)CC[C@@H]1[C@@H]2CC[C@]2(C)[C@@H](c3ccc(=O)oc3)CC[C@]12O 0.275

----------
assay-procedure: Rat pharmacokinetic study
run-conditions: male, Sprague-Dawley, plasma, po, 2 mg/kg, Ft (oral bioavailability), P.O.
quantity: bioavailability (%)
Quick note: give the figure in %, leave out the unit.

# query: bioavailability of entry C[C@]12CC[C@H](O)C[C@@]1(O)CC[C@@H]1[C@@H]2CC[C@]2(C)[C@@H](c3ccc(=O)oc3)CC[C@]12O [telocinobufagin] 33
